Below, each entry is listed alongside its reported TGI.
# Tested on: IGROV1 ovarian
# run.description: NCI tumour cell line growth inhibition, 48 h

Some solved cases for reference:
Cc1ccc(S(=O)(=O)n2cc(C(=O)C(=O)Nc3ccncc3)c3ccccc32)cc1
> 100 µM
C[C@]12CCC(=O)C=C1CC[C@@H]1[C@@H]2CC[C@]2(C)C(=O)/C(=C/c3cccc(OCCN4CCOCC4)c3)C[C@@H]12
95.9 µM
O=S1c2ccc(Cl)cc2CC(SSC2Cc3cc(Cl)ccc3S(=O)c3ccccc32)c2ccccc21 (stereo not drawn)
> 100 µM
O=C(CC(=O)C(F)(F)F)c1csc2ccccc12
> 100 µM
CCOC(=O)C1=C(C)N(NC(=O)c2ccccc2)C2(O)CCCC12C(=O)OCC (stereo not drawn)
> 100 µM
Cn1cnc2c(NCc3ccccc3)nc(NCCO)nc21
334 µM
COC(=O)C1C(=O)O[C@@H](c2ccc(OC)cc2OC)C1C(=O)OC (stereo partly drawn)
> 100 µM
CCN(CC)CCOc1cc2c(C(=O)OC)c(C)oc2cc1C(C)=O
33 µM
Cn1cc(C2=C(c3c4n(c5ccccc35)CCC(CN)CC4)C(=O)NC2=O)c2ccccc21 (stereo not drawn)
8.75 µM
CNC(=O)CN(CC(N)=O)C(=O)NC
> 100 µM

Any idea what TGI was measured for CC(=O)OCC1OC(S[As](C)C)C(OC(C)=O)C1OC(C)=O (stereo not drawn) ?
4.06 µM

Consider the molecule COC(=O)/C(=C/CC(N=C(c1ccccc1)c1ccccc1)C(=O)OC)N=C(c1ccccc1)c1ccccc1 (stereo not drawn) and give its measured TGI.
> 100 µM

Form field: reported TGI of C[C@@H]1OC2(O)[C@@H]3CCCN3C(=O)N(Cc3ccccc3)N2C1=O (stereo partly drawn)
> 100 µM

Using the record for `CC1=[N+]([O-])C(C)(C)N(O)C1(C)C` , report its TGI.
> 100 µM

// lookup TGI for `O=C(/C=C/c1cccs1)c1ccc(C(=O)/C=C/c2cccs2)cc1`
> 100 µM

Query: TGI; subject: O=C1NC(Cc2c[nH]c3ccccc23)C(=O)N2C(c3ccccc3)c3[nH]c4ccccc4c3C[C@@H]12 (stereo partly drawn)
50.1 µM

Fill in the blank: the reported TGI of `CCNc1nc(N2CC(=O)Nc3cc(OC)ccc32)c2ccccc2n1` is ____.
14.1 µM

# get_value(readout='TGI', item= `COC(=O)/C=C(\S/C(=C(/c1ccc(OC)cc1)n1cc(C(=O)OC)c(C(=O)OC)n1)c1ccc(OC)cc1)C(=O)OC` )
22.5 µM

Fill in: TGI of CC(C)=CCC/C(C)=C/CC/C(=C/COP(=O)(OCc1ccc([N+](=O)[O-])o1)N(C)CCCCCl)C(C)(C)C (stereo not drawn) is ___
22.5 µM

For `Cc1c(CCl)c(=O)oc2c(C)c3occ(CCl)c(=O)c3cc12` , what is its reported TGI?
40.9 µM

Report TGI for `N#CC1=C(N2CCOCC2)CCC1` please.
> 100 µM

Find the recorded TGI belonging to `C/C(=C/CNc1ncnc2c1ncn2CCC#N)CO` and report it.
> 100 µM
